biological target: c-kit mutant D816V (Homo sapiens, UniProt P10721, D816V/DEL694-753); construct: residues 551-934, kinase insertion domain residues 694-753 deleted; 6x-histidine (N); made in house; host or cells: E. coli Arctic Express (DE3) RIL (Stratagene); assay: c-Kit mutant D816V biochemical assay, AlphaScreen; conditions: c-kit D816V biochemical inhibitory activity; read-out: Biochemical activity (IC50 μM) Kit D816V
Sequence (P10721 with tags, fused parts or gaps DEL694-753/D816V): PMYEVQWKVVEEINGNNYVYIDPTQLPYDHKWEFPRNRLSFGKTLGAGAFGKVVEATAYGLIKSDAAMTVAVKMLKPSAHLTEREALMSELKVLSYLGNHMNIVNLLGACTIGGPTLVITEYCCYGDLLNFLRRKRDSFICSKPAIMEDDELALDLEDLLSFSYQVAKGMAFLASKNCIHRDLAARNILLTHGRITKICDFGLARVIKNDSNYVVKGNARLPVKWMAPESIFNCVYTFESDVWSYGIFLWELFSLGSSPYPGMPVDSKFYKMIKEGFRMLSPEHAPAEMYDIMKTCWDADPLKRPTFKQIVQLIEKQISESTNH
REPORTED PROPERTY: IC50

// solved cases for IC50 follow
COMPOUND STRUCTURE STRING | SUBJECT OF TEST | REPORTED PROPERTY | RESULT
CS(=O)(=O)Nc1ccc(-c2ncnc3[nH]c(-c4ccc(F)cc4F)cc23)c(F)c1 | c-kit mutant D816V (Homo sapiens, UniProt P10721, D816V/DEL694-753) | IC50 | 0.0001 to 1 µM
CS(=O)(=O)Nc1ccc(-c2ncnc3[nH]c(-c4ccc(F)cc4)cc23)cc1F | c-kit mutant D816V (Homo sapiens, UniProt P10721, D816V/DEL694-753) | IC50 | 0.0001 to 1 µM

Item: `C[C@H](NC(=O)N1CCN(c2ncnc3cc(-c4ccc(F)cc4)sc23)C[C@H]1C)c1cccc(F)c1` | IC50: 1 to 10 µM

###

molecular target: c-kit kinase (Homo sapiens, UniProt P10721); construct: The c-kit (or kinase domain thereof) is an active kinase in AlphaScreen; poly-Histidine tag (in-house protein only) (cleaved yes); host or cells: E. coli BL21(DE3)RIL, co-expressed with PTP1B; assay: c-Kit biochemical assay, AlphaScreen, 10 μM ATP; conditions: c-kit biochemical inhibitory activity; read-out: Biochemical activity (IC50 μM) Kit
Sequence (P10721 26-976): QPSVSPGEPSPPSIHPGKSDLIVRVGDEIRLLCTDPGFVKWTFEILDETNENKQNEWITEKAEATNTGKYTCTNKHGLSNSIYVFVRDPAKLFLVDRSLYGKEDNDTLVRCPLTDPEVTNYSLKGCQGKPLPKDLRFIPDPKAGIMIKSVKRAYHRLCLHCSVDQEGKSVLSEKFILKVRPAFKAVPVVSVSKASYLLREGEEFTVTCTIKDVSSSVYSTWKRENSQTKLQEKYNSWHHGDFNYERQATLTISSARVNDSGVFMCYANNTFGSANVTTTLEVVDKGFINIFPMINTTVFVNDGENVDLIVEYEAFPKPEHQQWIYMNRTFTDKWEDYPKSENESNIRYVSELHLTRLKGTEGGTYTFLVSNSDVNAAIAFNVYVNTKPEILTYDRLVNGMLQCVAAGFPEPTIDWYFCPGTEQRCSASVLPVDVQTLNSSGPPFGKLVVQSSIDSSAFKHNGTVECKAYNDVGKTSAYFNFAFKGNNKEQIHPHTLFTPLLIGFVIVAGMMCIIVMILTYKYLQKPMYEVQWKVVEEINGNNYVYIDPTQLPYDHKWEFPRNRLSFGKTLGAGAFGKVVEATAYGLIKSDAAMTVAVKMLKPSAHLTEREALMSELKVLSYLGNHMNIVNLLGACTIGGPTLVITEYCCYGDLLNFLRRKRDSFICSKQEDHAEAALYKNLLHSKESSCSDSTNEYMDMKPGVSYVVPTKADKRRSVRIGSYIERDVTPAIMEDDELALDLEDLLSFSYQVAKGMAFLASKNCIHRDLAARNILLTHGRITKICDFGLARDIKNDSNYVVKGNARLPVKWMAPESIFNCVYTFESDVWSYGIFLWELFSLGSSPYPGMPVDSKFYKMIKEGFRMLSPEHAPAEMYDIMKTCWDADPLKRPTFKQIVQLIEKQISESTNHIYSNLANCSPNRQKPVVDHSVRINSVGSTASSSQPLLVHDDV
REPORTED PROPERTY: IC50

COMPOUND STRUCTURE STRING | SUBJECT OF TEST | IC50
CC(=O)Nc1cccc(-c2cc3c(N4CCN(C(=O)Nc5ccc(OC(F)(F)F)cc5)CC4)ncnc3[nH]2)c1 | c-kit kinase (Homo sapiens, UniProt P10721) | 0.0001 to 1 µM
COc1ccc(CNC(=O)N2CCN(c3ncnc4[nH]c(-c5ccc(F)cc5)cc34)CC2)cc1 | c-kit kinase (Homo sapiens, UniProt P10721) | 10 to 200 µM
Cc1cc2c(-c3ccc(NS(=O)(=O)c4cc(Cl)cs4)cc3)ncnc2[nH]1 | c-kit kinase (Homo sapiens, UniProt P10721) | 0.0001 to 1 µM

c-kit kinase (Homo sapiens, UniProt P10721) data for `Cc1ccc([C@H](C)NC(=O)N2CCN(c3ncnc4[nH]c(-c5ccc(F)cc5)cc34)C[C@H]2C)cc1` ; its IC50: 10 to 200 µM

c-kit kinase (Homo sapiens, UniProt P10721) data for `CCc1ccc(S(=O)(=O)NC2CCN(c3ncnc4[nH]c(C)cc34)CC2)s1` ; its IC50: 0.0001 to 1 µM

c-kit kinase (Homo sapiens, UniProt P10721) data for `Cn1cc(-c2cc3ncnc(-c4ccc(N)nc4)c3s2)cn1` ; its IC50: 1 to 10 µM

c-kit kinase (Homo sapiens, UniProt P10721) data for `Cc1ccc(S(=O)(=O)NC2CCN(c3ncnc4[nH]c(-c5cnn(C)c5)cc34)CC2)s1` ; its IC50: 10 to 200 µM

c-kit kinase (Homo sapiens, UniProt P10721) data for `Cc1ccc(-c2cc3c(N4CCN(c5nc6ccccc6[nH]5)CC4)ncnc3[nH]2)cn1` ; its IC50: 1 to 10 µM

c-kit kinase (Homo sapiens, UniProt P10721) data for `C[C@H](NC(=O)N1CCN(c2ncnc3[nH]c(-c4ccc(Cl)cc4)cc23)CC1)c1ccc(Cl)cc1` ; its IC50: 1 to 10 µM
